assay_protocol: Rat dose proportionality study (oral)
condition_context: male, Sprague-Dawley, plasma, 10 mg/kg

- smi: "COc1cccc2c1nc(C(F)F)n2-c1nc(N2CCOCC2)nc(N2CCN(S(=O)(=O)CCN(C)C)CC2)n1"
  half-life, h: 2.27

====

target_or_system: panel of 442 kinases (Homo sapiens, UniProt Q13554)
Construct: purchased Ambit Biosciences (scanMAXX KINOMEscan)
Sequence (Q13554 whole entry): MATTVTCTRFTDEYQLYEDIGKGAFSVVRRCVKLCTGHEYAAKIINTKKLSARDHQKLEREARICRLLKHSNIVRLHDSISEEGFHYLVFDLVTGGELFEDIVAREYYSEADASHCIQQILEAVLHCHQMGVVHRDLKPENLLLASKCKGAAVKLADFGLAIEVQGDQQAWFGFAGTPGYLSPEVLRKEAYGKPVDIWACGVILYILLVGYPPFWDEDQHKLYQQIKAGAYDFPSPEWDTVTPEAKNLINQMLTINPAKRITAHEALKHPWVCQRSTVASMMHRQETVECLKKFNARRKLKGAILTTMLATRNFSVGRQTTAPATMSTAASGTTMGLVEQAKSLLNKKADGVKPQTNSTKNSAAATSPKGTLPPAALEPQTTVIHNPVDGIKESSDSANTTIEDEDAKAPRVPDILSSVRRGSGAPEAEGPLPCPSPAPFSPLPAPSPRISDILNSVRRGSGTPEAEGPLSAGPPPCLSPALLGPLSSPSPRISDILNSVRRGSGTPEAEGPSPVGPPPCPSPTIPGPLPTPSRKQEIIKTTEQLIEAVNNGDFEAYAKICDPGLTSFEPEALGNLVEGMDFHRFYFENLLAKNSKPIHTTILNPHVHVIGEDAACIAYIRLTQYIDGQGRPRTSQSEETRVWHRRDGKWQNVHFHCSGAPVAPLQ
assay_protocol: biochemical
Type: binding
condition_context: CAMK2B; 1 µM; read-out: % of control at 1 µM

- smi: "COc1ncc(-c2ccc3nccc(-c4ccnnc4)c3c2)cc1NS(=O)(=O)c1ccc(F)cc1F"
  remaining activity at 1 µM [%]: 100
- smi: "Nc1cc(C(F)(F)F)c(-c2cc(N3CCOCC3)nc(N3CCOCC3)n2)cn1"
  remaining activity at 1 µM [%]: 80
- smi: "FC(F)c1nc2ccccc2n1-c1nc(N2CCOCC2)nc(N2CCOCC2)n1"
  remaining activity at 1 µM [%]: 100
- smi: "Cn1c(=O)n(-c2ccc(C(C)(C)C#N)cc2)c2c3cc(-c4cnc5ccccc5c4)ccc3ncc21"
  remaining activity at 1 µM [%]: 87

Data origin, for the record: paper PMC5564600
